- TARGET: UniProtKB P32745
- Sequence (P32745 whole entry): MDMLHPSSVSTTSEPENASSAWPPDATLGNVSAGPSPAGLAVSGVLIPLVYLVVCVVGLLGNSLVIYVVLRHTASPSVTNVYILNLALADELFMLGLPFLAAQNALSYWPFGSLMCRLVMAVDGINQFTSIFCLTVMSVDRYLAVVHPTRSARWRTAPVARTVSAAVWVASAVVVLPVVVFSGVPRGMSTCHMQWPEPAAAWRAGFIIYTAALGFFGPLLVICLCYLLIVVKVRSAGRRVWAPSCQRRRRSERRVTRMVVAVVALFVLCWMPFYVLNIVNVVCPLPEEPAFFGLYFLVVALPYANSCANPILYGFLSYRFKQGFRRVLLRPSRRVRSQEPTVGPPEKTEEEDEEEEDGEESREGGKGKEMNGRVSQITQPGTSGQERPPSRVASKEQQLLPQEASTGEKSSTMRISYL
- EXPERIMENTAL_PROTOCOL: In vitro inhibition of [125I][Leu8,D-Trp22,Tyr25] somatostatin 28 binding to human somatostatin receptor type 3 expressed in CCL39 cells; (n=3)
- Type: cell-based
- CONDITION_LABEL: ccl39
pIC50: −log10 of the molar value.
RECORDED_METRIC: pIC50

INSERT INTO assay_data (smiles_data, recorded_metric, result_value) VALUES
  ('C[C@@H](O)[C@H](NC(=O)[C@@H]1CSSC[C@H](NC(=O)[C@@H](Cc2ccccc2)NC(=O)CCS[C@@H]2O[C@@H](CO)[C@H](O)[C@H](O)[C@@H]2O)C(=O)N[C@@H](Cc2ccc(O)c(I)c2)C(=O)N[C@H](Cc2c[nH]c3ccccc23)C(=O)N[C@@H](CCCCN)C(=O)N[C@@H]([C@@H](C)O)C(=O)N1)C(=O)O', 'pIC50', 6.31);
